meta.source: ChEMBL document CHEMBL3507680

Each entry below carries its reported cytotoxicity at 70.5 h.
test: Human HepG2 cell viability assay in 384 well format; assay type: toxicity, cell-based; parameters: dose 125 nL, time 70.5 hour; concentration not given beside the values; settings: HepG2 cells, read-out: Inhibition
# number only, unit % dropped from output

compound	measurement-units	recorded-measurement
Nc1no[n+]([O-])c1C(=O)NCc1ccccn1	%	-13.7
CN(C)Cc1cc(=O)n2c(n1)CN(C(=O)c1ccc[nH]1)CCC2	%	-2.94
CCC(=O)N1CCN(c2cc(-n3cnc(C)c3C)nc(C)n2)CC1	%	20.4

Given the entry O=C(C1CCCC1)N1CCC(C(O)c2ccc(F)cc2)CC1 (stereo not given) , report its measured cytotoxicity at 70.5 h.
-6.02

Quick check: cytotoxicity at 70.5 h of Cc1ccc(CN2CC[C@H]3[C@H]2CC(=O)N3c2cccnc2)o1 ?
8.92

Fill blank: measured cytotoxicity at 70.5 h of the compound CC1(C)CN(C(=O)c2occc2COc2cccc(C#N)c2)CCO1 is ____.
3.19

Reported cytotoxicity at 70.5 h for CC(NCc1nnc2n1CCCC2)C(=O)N1CCc2sccc2C1 (stereo not given) : what is it?
-2.4

Would you kindly share the measured cytotoxicity at 70.5 h for CCN(CC)S(=O)(=O)NCC(O)c1c(Cl)cccc1Cl (stereo not given) ?
8.36

Looking for the measured cytotoxicity at 70.5 h of O=S(=O)(c1ccccc1)N1CCC[C@]2(C[C@H](OCC3CC3)CO2)C1 , can you help?
-9.34
